Experimental system: recombinant Pseudomonas aeruginosa LpxC (Pseudomonas aeruginosa (strain ATCC 15692 / DSM 22644 / CIP 104116 / JCM 14847 / LMG 12228 / 1C / PRS 101 / PAO1), UniProt P47205)
Assay comment: Inhibition of LpxC enzymatic activity (fluorescamine assay)
Format: biochemical
Experimental context: recombinant P. aeruginosa LpxC 5 nM, substrate 10 μM, 25° C., 120 minutes; read-out: IC50
Quantity name: pIC50
One number for each entry, as −log10 of the molar value.

Record smiles: C[C@H](O)c1nccn1Cc1cc(-c2ccc(C#Cc3ccc(CN4CCC(C(=O)O)CC4)cc3)cc2)on1
Endpoint value: 8.17
//
Record smiles: C[C@H](O)c1nccn1Cc1cc(-c2ccc(C#Cc3ccc(CN4CCOCC4)cc3)cc2)no1
Endpoint value: 7.60
//
Record smiles: C[C@H](O)c1nccn1Cc1cc(-c2ccc(C#Cc3ccc(C(=O)N4CCC(O)CC4)cc3)cc2)on1
Endpoint value: 7.98

Query compound follows.
For the compound "CCN(CC)CCNC(=O)c1ccc(C#Cc2ccc(-c3cc(Cn4ccnc4[C@H](C)O)no3)cc2)cc1" , report pIC50.
7.89
